target: human GSK3α (Homo sapiens); construct: Full length human GSK3α or GSK3B expressed as N-terminal GST fusion proteins; GST (N); purchased Carna Biosciences (Japan); host or cells: baculovirus host; experiment: In vitro enzymatic activity assay, GSK3α; assay type: biochemical; details: 1.0 mM ATP, 1.0 μM peptide substrate, 120 min, 25° C, read-out: Enzyme GSK3α (IC50)
Sequence (P49840 whole entry, the tested form may be a part): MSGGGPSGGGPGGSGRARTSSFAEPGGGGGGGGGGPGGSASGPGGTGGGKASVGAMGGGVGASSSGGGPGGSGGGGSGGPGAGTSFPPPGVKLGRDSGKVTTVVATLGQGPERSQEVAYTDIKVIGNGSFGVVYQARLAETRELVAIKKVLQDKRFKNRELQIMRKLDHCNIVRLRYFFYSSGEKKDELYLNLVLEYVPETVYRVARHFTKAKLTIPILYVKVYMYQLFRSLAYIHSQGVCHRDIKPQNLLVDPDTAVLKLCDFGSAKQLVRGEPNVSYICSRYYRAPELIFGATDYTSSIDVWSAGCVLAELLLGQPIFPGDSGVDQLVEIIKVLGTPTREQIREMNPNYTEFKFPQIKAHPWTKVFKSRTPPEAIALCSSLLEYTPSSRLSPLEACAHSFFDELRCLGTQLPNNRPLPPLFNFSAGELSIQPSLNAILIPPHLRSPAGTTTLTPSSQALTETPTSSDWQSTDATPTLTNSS
QUANTITY NAME: IC50 (nM)

Examples with answers:
INSERT INTO assay_data (compound, measurement_target, measurement_unit, readout_number) VALUES
  ('Cc1cc([C@@H](C)F)cc(C)c1-n1cnc(N)c(C(=O)Nc2cncc([C@H]3CCCCN3)c2)c1=O (single isomer, unassigned) [Example 185]', 'human GSK3α (Homo sapiens)', 'nM', 3.5),
  ('CCCOc1cc(C)c(-n2cnc(N)c(C(=O)Nc3cncc(CNC)c3)c2=O)c(C)c1', 'human GSK3α (Homo sapiens)', 'nM', 18.6),
  ('C[C@H](N)c1cncc(NC(=O)c2c(N)ncn(-c3c(Cl)cc(C#N)cc3Cl)c2=O)c1 (single isomer, unassigned)', 'human GSK3α (Homo sapiens)', 'nM', 4.9),
  ('COc1cc(Cl)c(-n2cnc(N)c(C(=O)Nc3cncc([C@@H]4COCCCN4)c3)c2=O)c(Cl)c1 (single isomer, unassigned)', 'human GSK3α (Homo sapiens)', 'nM', 2.4),
  ('Cc1cc(C(F)CF)cc(C)c1-n1cnc(N)c(C(=O)Nc2cncc(C3CCCCCN3)c2)c1=O (single isomer, unassigned) [Example 112]', 'human GSK3α (Homo sapiens)', 'nM', 10.5),
  ('CCC(N)c1cncc(NC(=O)c2c(N)ncn(-c3c(C)cc(C(F)F)cc3C)c2=O)c1 (single isomer, unassigned)', 'human GSK3α (Homo sapiens)', 'nM', 19),
  ('Cc1cc(C(F)(F)F)cc(C)c1-n1cnc(N)c(C(=O)Nc2cncc([C@H]3CCCCN3)c2)c1=O', 'human GSK3α (Homo sapiens)', 'nM', 5.6),
  ('COCc1cc(C)c(-n2cnc(N)c(C(=O)Nc3cncc(C4CNC(=O)CN4)c3)c2=O)c(C)c1 (single isomer, unassigned) [Example 159]', 'human GSK3α (Homo sapiens)', 'nM', 90.6),
  ('COc1cc(Cl)c(-n2cnc(N)c(C(=O)Nc3cncc(C4CCCC(C)N4)c3)c2=O)c(Cl)c1 (single isomer, unassigned)', 'human GSK3α (Homo sapiens)', 'nM', 7),
  ('COCc1cc(Cl)c(-n2cnc(N)c(C(=O)Nc3cncc([C@H](N)CC(F)F)c3)c2=O)c(Cl)c1 (single isomer, unassigned)', 'human GSK3α (Homo sapiens)', 'nM', 2.9);

(P) CCNCc1cncc(NC(=O)c2c(N)ncn(-c3c(Cl)cc(CC(F)(F)F)cc3Cl)c2=O)c1
(Q) CCOC[C@@H](N)c1cncc(NC(=O)c2c(N)ncn(-c3c(C)cc(COC)cc3C)c2=O)c1 (single isomer, unassigned)
Of P and Q , which shows the smaller IC50 value? // respond with label for picked entry
Q
(Q: 4 nM, P: 8.7 nM)

====

molecular target: GSK3A (Homo sapiens, UniProt P49840); test: NanoBRET cellular target engagement assay, Nanoluc-GSK3A in HEK293 cells; settings: NanoBRET GSK3α IC50, HEK293 cells, tracer K-8, 2 hours, 37° C
pIC50: −log10 of the molar value.
QUANTITY NAME: pIC50

In the examples that follow, each entry is paired with its recorded pIC50.
INSERT INTO measurements (compound, readout_number) VALUES
  ('COc1c(NC(=O)c2c(N)ncn(-c3c(Cl)cccc3Cl)c2=O)cccc1C1CCCN1 (single isomer, unassigned) [Example 169]', 8.70),
  ('CCOc1cc(C)c(-n2cnc(N)c(C(=O)Nc3cncc([C@H]4CCCCN4)c3)c2=O)c(C)c1 [Example 91]', 8.43),
  ('CCOCc1cc(Cl)c(-n2cnc(N)c(C(=O)Nc3cncc(C(N)CC)c3)c2=O)c(Cl)c1 (single isomer, unassigned) [Example 129]', 8.92);

(1) COC[C@@H](N)c1cccc(NC(=O)c2c(N)ncn(-c3c(Cl)cccc3C(F)F)c2=O)c1 (atropisomer, axis not shown) [Example 7]
(2) CCOc1cc(Cl)c(-n2cnc(N)c(C(=O)Nc3cncc([C@@H](C)N)n3)c2=O)c(Cl)c1 (single isomer, unassigned) [Example 219]
Lower value for measured pIC50? Options: 1 , 2 Write down the label of the entry you select.
1
